molecular target: A2BAR (Homo sapiens, UniProt P29275); experiment: cAMP accumulation in HEK293 cells overexpressing the A2BAR; conditions: read-out: EC50 cAMP; HEK293 cells overexpressing A2BAR
Sequence (P29275 whole entry): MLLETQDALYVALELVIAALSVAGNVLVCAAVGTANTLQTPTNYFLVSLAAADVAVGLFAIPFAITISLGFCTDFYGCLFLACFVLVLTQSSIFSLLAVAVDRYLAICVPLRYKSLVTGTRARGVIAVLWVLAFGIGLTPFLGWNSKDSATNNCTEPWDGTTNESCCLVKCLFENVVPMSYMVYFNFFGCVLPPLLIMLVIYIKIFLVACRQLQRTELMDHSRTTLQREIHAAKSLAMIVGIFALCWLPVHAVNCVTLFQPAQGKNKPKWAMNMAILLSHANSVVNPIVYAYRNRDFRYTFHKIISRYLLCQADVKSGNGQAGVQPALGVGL
quantity_kind: EC50 (nM)
Note: unit nM is implicit; provide only the numeric part.

Item: Nc1ncnc2c1ncn2[C@@H]1O[C@H](C(=O)NC2CC2)[C@@H](O)[C@H]1O [CPCA, adenosine-5′-N-cyclopropyluronamide] | EC50: 32.8

====

biological target: A2BAR (Homo sapiens, UniProt P29275); experiment: Intracellular calcium mobilization in HEK293 cells overexpressing the A2BAR; settings: read-out: EC50 Calcium; HEK293 cells overexpressing A2BAR
quantity_kind: pEC50
Scale explanation: pEC50 corresponds to minus log10 of a concentration expressed in moles per litre.

Entry Nc1ncnc2c1ncn2[C@@H]1O[C@H](C(=O)NC2CC2)[C@@H](O)[C@H]1O [CPCA, adenosine-5′-N-cyclopropyluronamide] , A2BAR (Homo sapiens, UniProt P29275) data, pEC50 value: 5.83
